Below is a list of entries, each paired with its recorded IC50 value.
- Study System: human TLR9 (Homo sapiens (Human), UniProt Q9NR96)
- Sequence (Q9NR96 26-1032): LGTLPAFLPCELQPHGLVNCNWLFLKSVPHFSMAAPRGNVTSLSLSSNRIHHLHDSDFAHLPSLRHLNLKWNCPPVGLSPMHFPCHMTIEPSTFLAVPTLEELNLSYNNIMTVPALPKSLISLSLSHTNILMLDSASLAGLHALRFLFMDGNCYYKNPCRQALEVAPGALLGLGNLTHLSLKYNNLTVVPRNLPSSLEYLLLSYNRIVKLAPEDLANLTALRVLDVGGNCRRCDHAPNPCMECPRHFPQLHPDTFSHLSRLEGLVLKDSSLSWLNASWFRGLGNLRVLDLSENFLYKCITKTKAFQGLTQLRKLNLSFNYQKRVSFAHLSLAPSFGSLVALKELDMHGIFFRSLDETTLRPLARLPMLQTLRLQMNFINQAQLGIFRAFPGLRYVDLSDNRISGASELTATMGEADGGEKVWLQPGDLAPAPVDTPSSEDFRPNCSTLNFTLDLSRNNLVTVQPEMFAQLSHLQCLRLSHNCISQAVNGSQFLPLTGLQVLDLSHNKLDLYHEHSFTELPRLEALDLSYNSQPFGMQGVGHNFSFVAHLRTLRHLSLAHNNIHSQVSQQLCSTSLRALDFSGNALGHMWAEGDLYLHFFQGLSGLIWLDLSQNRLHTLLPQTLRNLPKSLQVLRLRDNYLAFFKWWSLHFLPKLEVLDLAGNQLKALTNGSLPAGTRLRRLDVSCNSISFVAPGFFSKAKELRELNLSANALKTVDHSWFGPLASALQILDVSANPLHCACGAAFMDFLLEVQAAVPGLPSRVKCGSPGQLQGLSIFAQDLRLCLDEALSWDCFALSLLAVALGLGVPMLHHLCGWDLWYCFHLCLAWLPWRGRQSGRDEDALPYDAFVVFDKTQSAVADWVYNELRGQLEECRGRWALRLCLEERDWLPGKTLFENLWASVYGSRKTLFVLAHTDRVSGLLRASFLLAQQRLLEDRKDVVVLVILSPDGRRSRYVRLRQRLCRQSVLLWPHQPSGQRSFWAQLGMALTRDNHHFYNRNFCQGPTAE
- Experiment: TLR9 inhibition reporter assay (HEK-Blue, SEAP)
- Condition: HEK-Blue cells overexpressing human TLR9, ODN2006 5 nM stimulation

Worked set:
* CCc1c(-c2ccc(OC)c(OC)c2)[nH]c2ccc(-c3noc(C4CC(=O)N(C)C4)n3)cc12 (centres unmarked) [Example 441] | > 50 µM
* Cc1cc(-c2[nH]c3ccc(-c4ccnc(N)c4)cc3c2C(C)C)ccn1 [Example 200] | 0.727 µM
* COc1ccc(-c2[nH]c3ccc(-c4ccc(-c5cccnc5)cc4)cc3c2C(C)C)cc1OC [Example 406] | > 50 µM
* COc1ccc(-c2[nH]c3ccc(-c4ccc(N5CCN(C6CCCC6)CC5)cc4)cc3c2C(C)C)cc1OC [Example 403] | > 50 µM

Lab note: next compound to report on.
Tell me reported IC50 for COc1ccc(-c2[nH]c3ccc(-c4nnc(CN5CCN(C(C)=O)CC5)o4)cc3c2C(C)C)cc1OC [Example 116] , tested with human TLR9 (Homo sapiens (Human), UniProt Q9NR96).
> 50 µM

----------
Below is a list of entries, each paired with its recorded IC50 value.
- Study System: human TLR9 (Homo sapiens (Human), UniProt Q9NR96)
- Experiment: TLR9 inhibition reporter assay (HEK-Blue, SEAP)
- Condition: HEK-Blue cells overexpressing human TLR9, ODN2006 5 nM stimulation
- Excerpt: TLR7/8/9 Inhibition Reporter Assays HEK-Blue™-cells (Invivogen) overexpressing human TLR7, TLR8 or TLR9 receptors were used for screening inhibitors of these receptors using an inducible SEAP (secreted embryonic alkaline phosphatase) reporter gene under the control of the IFN-β minimal promoter fused to five NF-κc Band AP-1-binding sites. […]

* CC(C)c1c(-c2ccnc3[nH]ncc23)[nH]c2ccc(-c3nnc(CN(C)C(C)C)o3)cc12 | > 50 µM
* COc1ccc(-c2[nH]c3ccc(-c4ccc(OC5CCN(CC(C)C)CC5)cc4)cc3c2C(C)C)cc1OC | > 50 µM
* COc1ccc(-c2[nH]c3ccc(-c4nnc(CNCCOC(C)C)o4)cc3c2C(C)C)cc1OC | > 50 µM

Consider the compound shown here: Cc1cc(-c2[nH]c3ccc(-c4nnc(CCCN(C)C)o4)cc3c2C(C)C)ccn1 What is its recorded IC50?
0.695 µM

Consider the compound shown here: Cc1cc(-c2[nH]c3ccc(-c4nnc(C5CN6CCC5CC6)o4)cc3c2C(C)C)ccn1 (stereo not shown) [Example 231] What is its recorded IC50?
0.895 µM

Consider the compound shown here: COc1ccc(-c2[nH]c3ccc(-c4nnc(CN5CCC[C@H]5C(N)=O)o4)cc3c2C(C)C)cc1OC What is its recorded IC50?
> 50 µM

Consider the compound shown here: COc1ccc(-c2[nH]c3ccc(-c4nnc(C(=O)N5CCC(O)CC5)o4)cc3c2C(C)C)cc1OC What is its recorded IC50?
> 50 µM

----------
- Study System: human TLR8 (Homo sapiens (Human))
- Experiment: TLR8 inhibition reporter assay (HEK-Blue, SEAP)
- Condition: HEK-Blue cells overexpressing human TLR8, R848 15.9 μM stimulation
Below is a list of entries, each paired with its recorded IC50 value.
Express it in nM; write the number only.

Worked set:
* COc1ccc(-c2[nH]c3ccc(-c4nnc(C(=O)N5CCN(C(C)=O)CC5)o4)cc3c2C(C)C)cc1OC [Example 92] | 109
* COc1ccc(-c2[nH]c3ccc(-c4nnc(CN5CC6CNCC6C5)o4)cc3c2C(C)C)cc1OC (centres unmarked) [Example 107] | 23
* COc1ccc(-c2[nH]c3ccc(-c4nnc(C5CCN(C(=O)CN(C)C)CC5)[nH]4)cc3c2C(C)C)cc1OC [Example 131] | 37
* Cc1cc(-c2[nH]c3ccc(-c4nnc(CCCCN)o4)cc3c2C(C)C)ccn1 [Example 264] | 36
* Cc1cc(-c2[nH]c3ccc(-c4ccc(N)nc4)cc3c2C(C)C)ccn1 [Example 237] | 2

Consider the molecule shown here: COc1ccc(-c2[nH]c3ccc(-c4nnc(CN5CC[C@H](NC(C)=O)C5)o4)cc3c2C(C)C)cc1OC [Example 117] What is its recorded IC50?
50

Consider the molecule shown here: CCc1c(-c2ccnc(C)c2)[nH]c2ccc(-c3noc(CCC4CCNCC4)n3)cc12 [Example 448] What is its recorded IC50?
50

Consider the molecule shown here: Cc1cc(-c2[nH]c3ccc(-c4nc(C)cs4)cc3c2C(C)C)ccn1 [Example 192] What is its recorded IC50?
213

Consider the molecule shown here: Cc1cc(-c2[nH]c3ccc(-c4nnc(C5CCCN(C(C)C)C5)o4)cc3c2CC(F)F)cc(C)n1 (centres unmarked) [Example 328] What is its recorded IC50?
30

Consider the molecule shown here: COc1ccc(-c2[nH]c3ccc(-c4ccnc(C(=O)NC5CCN(C(C)C)CC5)c4)cc3c2C(C)C)cc1OC [Example 11] What is its recorded IC50?
18

Consider the molecule shown here: Cc1cc(-c2[nH]c3ccc(-c4nc5c(s4)CNCC5)cc3c2C(C)C)cc(C)n1 [Example 308] What is its recorded IC50?
0.5

Consider the molecule shown here: COc1ccc(-c2[nH]c3ccc(-c4nnc(C[C@@H]5CCCN5)o4)cc3c2C(C)C)cc1OC [Example 51] What is its recorded IC50?
7.7

----------
- Study System: human TLR8 (Homo sapiens (Human), UniProt Q9NR97)
- Sequence (Q9NR97 27-1041): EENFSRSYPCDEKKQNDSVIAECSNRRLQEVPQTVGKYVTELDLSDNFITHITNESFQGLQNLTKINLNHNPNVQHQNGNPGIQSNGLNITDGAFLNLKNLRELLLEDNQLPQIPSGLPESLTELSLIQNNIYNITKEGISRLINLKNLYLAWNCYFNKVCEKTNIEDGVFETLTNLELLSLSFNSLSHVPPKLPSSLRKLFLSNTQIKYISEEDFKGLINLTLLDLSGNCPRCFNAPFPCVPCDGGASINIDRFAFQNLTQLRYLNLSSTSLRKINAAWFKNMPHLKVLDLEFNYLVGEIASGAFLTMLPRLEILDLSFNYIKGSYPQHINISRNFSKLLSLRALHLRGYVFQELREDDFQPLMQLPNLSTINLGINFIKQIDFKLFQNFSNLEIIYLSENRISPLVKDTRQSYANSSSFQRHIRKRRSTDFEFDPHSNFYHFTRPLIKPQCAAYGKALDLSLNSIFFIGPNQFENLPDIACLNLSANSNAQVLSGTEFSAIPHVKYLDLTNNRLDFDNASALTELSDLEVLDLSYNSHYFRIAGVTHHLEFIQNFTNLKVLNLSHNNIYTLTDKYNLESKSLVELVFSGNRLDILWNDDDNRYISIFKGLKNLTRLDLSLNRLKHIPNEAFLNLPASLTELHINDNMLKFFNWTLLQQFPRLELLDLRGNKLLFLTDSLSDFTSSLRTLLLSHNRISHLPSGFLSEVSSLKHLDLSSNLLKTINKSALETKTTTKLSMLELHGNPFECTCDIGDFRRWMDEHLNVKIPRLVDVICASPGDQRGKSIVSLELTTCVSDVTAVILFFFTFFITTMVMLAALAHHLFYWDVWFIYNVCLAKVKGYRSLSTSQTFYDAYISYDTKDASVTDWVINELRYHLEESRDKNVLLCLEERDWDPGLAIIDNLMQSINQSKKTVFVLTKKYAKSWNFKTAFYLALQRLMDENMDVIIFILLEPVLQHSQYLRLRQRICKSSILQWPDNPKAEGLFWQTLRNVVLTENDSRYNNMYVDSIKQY
- Experiment: TLR8 inhibition reporter assay (HEK-Blue, SEAP)
- Condition: HEK-Blue cells overexpressing human TLR8, R848 15.9 μM stimulation
Below is a list of entries, each paired with its recorded pIC50 value.
Keep in mind that pIC50 stands for -log10 of concentration in molar terms.

- Cc1cc(-c2[nH]c3ccc(-c4nnc(C5CCCN(C(C)C)C5)[nH]4)cc3c2C(C)C)cc(C)n1 (centres unmarked) [Example 358]: 8.80
- CC(C)c1c(-c2ccnc3[nH]ncc23)[nH]c2ccc(-c3nnc(CNCC(C)(C)C)o3)cc12: 7.30
- Cc1cc(-c2[nH]c3ccc(-c4ccc(N5CCN(C)CC5)nc4)cc3c2C(C)C)ccn1: 7.66
- COc1ccc(-c2[nH]c3ccc(-c4nnc(C(=O)N(C)CCCN(C)C)o4)cc3c2C(C)C)cc1OC: 8.34

Consider the molecule shown here: COc1ccc(-c2[nH]c3ccc(-c4nnc(C5CCN(C(=O)OC(C)(C)C)CC5)o4)cc3c2C(C)C)cc1OC What is its recorded pIC50?
6.32

----------
- Study System: human TLR8 (Homo sapiens (Human), UniProt Q9NR97)
- Experiment: TLR8 inhibition reporter assay (HEK-Blue, SEAP)
- Condition: HEK-Blue cells overexpressing human TLR8, R848 15.9 μM stimulation
Measured Property: pIC50
Keep in mind that pIC50 stands for -log10 of concentration in molar terms.

Worked set:
• COc1ccc(-c2[nH]c3ccc(-c4cccc(C(=O)NCC#N)c4)cc3c2CC(F)(F)F)cc1OC [Example 27] = 7.09
• CNCCN1CCn2nc(-c3ccc4[nH]c(-c5ccnc(C)c5)c(C(C)C)c4c3)c(C(N)=O)c2C1 [Example 218] = 7.03
• COc1ccc(-c2[nH]c3ccc(-c4nnc(C5CCN(CC(=O)N(C)C)CC5)o4)cc3c2C(C)C)cc1OC [Example 17] = 7.77
• COc1ccc(-c2[nH]c3ccc(-c4nnc([C@@H]5CCCNC5)o4)cc3c2C(C)C)cc1OC [Example 55] = 8.09
• COc1ccc(-c2[nH]c3ccc(-c4nnc(N5CCNCC5)o4)cc3c2C(C)C)cc1OC [Example 105] = 8.06

Consider the molecule shown here: Cc1cc(-c2[nH]c3ccc(-c4nnc(C(=O)N5CCC(N)CC5)o4)cc3c2C(C)C)cc(C)n1 [Example 230] What is its recorded pIC50?
8.03

Consider the molecule shown here: Cc1cc(-c2[nH]c3ccc(-c4ccc(NC(=O)[C@H]5CCNC5)nc4)cc3c2C(C)C)ccn1 [Example 207] What is its recorded pIC50?
7.85

Consider the molecule shown here: COc1ccc(-c2[nH]c3ccc(-c4nnc(C5CCNC5)o4)cc3c2C(C)C)cc1OC (stereo not shown) [Example 48] What is its recorded pIC50?
7.96

----------
- Study System: human TLR9 (Homo sapiens (Human))
- Experiment: TLR9 inhibition reporter assay (HEK-Blue, SEAP)
- Condition: HEK-Blue cells overexpressing human TLR9, ODN2006 5 nM stimulation
pIC50: −log10 of the molar value.
Measured Property: pIC50

* Cc1cc(-c2[nH]c3ccc(-c4nnc(CC(F)(F)F)o4)cc3c2C(C)C)ccn1 [Example 75] | < 4.30
* CC(C)c1c(-c2ccnc3[nH]ncc23)[nH]c2ccc(-c3nnc(CNCC(C)(C)C)o3)cc12 [Example 149] | < 4.30

Lab note: next compound to report on.
Consider the compound shown here: CC(C)c1c(-c2ccnc3[nH]ncc23)[nH]c2ccc(-c3ccc4ncccc4c3)cc12 [Example 469] What is its recorded pIC50?
< 4.30
